Experiment: growth inhibitors of H69AR lung tumor, primary screen, human, duplicate replicates (AID 580);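 further: 100% = mean luminescence of untreated wells and 0% = no signal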
Details: H69AR lung tumor cells viability, ATP luminescence, 72 h; at 10 µM
Activity calls are given as the source filed them.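 How the source made its calls: active means viability at or under a set limit in both replicates, limit being median viability minus 3 SD (cut at about 48% in these data, passing the limit was not always enough); inconclusive means at or under the limit in just one replicate; inactive means at or above the limit in both replicates.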
Pick one and only one: 1 = active, 0 = inactive

These solved cases illustrate the format of a correct answer.
{"MOLECULE": "Nc1ncnc2c1ncn2[C@@H]1O[C@H](CO)[C@@H](O)[C@H]1O", "ASSIGNED CATEGORY": 0}
{"MOLECULE": "COC(=O)c1ccc(-c2ccco2)n1Cc1nc(-c2ccc(OC)c(OC)c2)oc1C", "ASSIGNED CATEGORY": 1}
{"MOLECULE": "CC(C)c1ccc(CNc2ccc(N3CCOCC3)cc2)cc1", "ASSIGNED CATEGORY": 0}
{"MOLECULE": "O=C(NC1CC1)C1CCC(=O)N1C1CCCC1 (stereo not given)", "ASSIGNED CATEGORY": 0}
{"MOLECULE": "COCC(=O)Nc1c(C(=O)Nc2ccccc2OC)oc2ccccc12", "ASSIGNED CATEGORY": 0}

Q: Each molecule tested received a call. Report the one for COc1cc(NC(=O)Nc2cccc(C(C)=O)c2)cc(OC)c1OC .
Ans: 0

Q: Each molecule tested received a call. Report the one for CCc1nnc(NC(=O)CSc2nnc(-c3ccccc3OC)n2-c2ccccc2)s1 .
Ans: 0

Q: Each molecule tested received a call. Report the one for CCOC(=O)c1sc(NC(=O)CSc2nnc(-c3ccco3)n2CC)c(C(=O)OCC)c1C .
Ans: 0

Q: Each molecule tested received a call. Report the one for Cc1nn(Cc2ccccc2)c2c1C(c1ccncc1)C(C#N)=C(N)O2 (stereo not given) .
Ans: 0

Q: Each molecule tested received a call. Report the one for COc1ccc(S(=O)(=O)N2CCC(C(=O)NCc3ccco3)CC2)cc1 .
Ans: 0

----------
Assay: OD615 S. cerevisiae growth inhibition, permissive medium, pilot counter-assay, permissive growth control for S. cerevisiae lifespan shortening project (AID 705)
Conditions: OD615, 24 h, at 10 µM, active compounds read high
The source made the active and inactive calls.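 The calls were made as follows: active = growth inhibition above 25% in both replicates, a cutoff set 3 SD above the mean; inconclusive = above 25% in only one replicate; inactive = the rest.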
Please provide measured growth inhibition for the entries that follow.

{"MOLECULE": "CCN(c1ccc2c(c1)OCO2)S(=O)(=O)c1cc(Br)cc2c1N(C(=O)C1CC1)CC2", "growth inhibition": "-12.3% (inactive)"}

Could you tell me growth inhibition for each of these molecules? They are listed below.
1. Cn1cccc1Cc1nnc(SCC(=O)N2CCOCC2)n1-c1ccc(F)cc1
2. O=C(NC1CCCc2ccccc21)C1CCN(c2nnc(-n3cccc3)s2)CC1 (configuration not stated)
3. O=C(NCc1nnc(SCC(=O)N2CCC(Cc3ccccc3)CC2)o1)c1ccccc1F
4. O=C(Oc1cc2oc(=O)c3c(c2cc1Cl)CCCC3)c1ccco1
5. CC(NC(=O)c1cn(C)c2ccc(S(=O)(=O)N3CCCC3)cc2c1=O)c1ccc2c(c1)OCCO2 (configuration not stated)
6. COc1ccc(N2C(=O)CC(N3CCCC4CCCCC43)C2=O)cc1 (configuration not stated)
7. Clc1ccc(C2Nc3ccccc3-n3cccc32)cc1 (configuration not stated)
8. CCOC(=O)c1ccccc1NC1c2ccccc2C(=O)N1C1CCN(C(=O)OCC)CC1 (configuration not stated)

Ans:
1: 5.02% (inactive); 2: -1.88% (inactive); 3: 5.21% (inactive); 4: -14.7% (inactive); 5: -9.02% (inactive); 6: -3.32% (inactive); 7: -26% (inactive); 8: 3.84% (inactive)
